These data points were gathered from ChEMBL document CHEMBL1125717.

- TARGET_ENTITY: Glutamate NMDA receptor
- ASSAY_METHOD_TEXT: Compound was tested in vitro for N-methyl-D-aspartate glutamate receptor binding using [3H]L-glutamate

| COMPOUND | REL | Ki / µM |
| --- | --- | --- |
| N[C@]1(C(=O)O)CC1CCP(=O)(O)O (stereo not given in full) | = | 18.7 |
| NC(C(=O)O)C1CC1CCCP(=O)(O)O (stereo in doubt; 33d) | > | 50 |
| NC(C(=O)O)C1CC1CP(=O)(O)O (stereo in doubt; 13a) | = | 18.9 |
| NC(C(=O)O)C1CC1CP(=O)(O)O (stereo in doubt; 13b) | = | 9.5 |
| NC(C(=O)O)C1CC1CCP(=O)(O)O (stereo not given) | > | 50 |
| N[C@@]1(C(=O)O)CC1CCP(=O)(O)O (stereo not given in full) | = | 26.7 |
| NC(C(=O)O)C1CC1CCCP(=O)(O)O (stereo in doubt; 33c) | = | 12.5 |
| N[C@H](C[C@@H]1CC1P(=O)(O)O)C(=O)O (stereo not given in full) | = | 1.6 |
| O=C(O)[C@@H]1C[C@H](CP(=O)(O)O)CCN1 | = | 0.16 |
| NC(CCCP(=O)(O)O)C(=O)O (stereo not given) | = | 0.42 |

---

- TARGET_ENTITY: Glutamate NMDA receptor
- ASSAY_METHOD_TEXT: Compound was tested in vitro for its inhibitory activity against N-methyl-D-aspartate glutamate receptor using [3H]MK-801
pIC50: −log10 of the molar value.
Collected pIC50 values appear next to each entry.
ENDPOINT: pIC50

| MOLECULE | TARGET_ENTITY | EXPERIMENTAL_RESULT |
| --- | --- | --- |
| NC(C(=O)O)C1CC1CP(=O)(O)O (stereo in doubt; 13b) | Glutamate NMDA receptor | 4.88 |
| N[C@H](C[C@@H]1CC1P(=O)(O)O)C(=O)O (stereo partly specified) | Glutamate NMDA receptor | 5.57 |
| NC(C(=O)O)C1CC1CP(=O)(O)O (stereo in doubt; 13a) | Glutamate NMDA receptor | 4.65 |
| N[C@@]1(C(=O)O)CC1CCP(=O)(O)O (stereo partly specified) | Glutamate NMDA receptor | 4.74 |
| O=C(O)[C@@H]1C[C@H](CP(=O)(O)O)CCN1 | Glutamate NMDA receptor | 6.85 |
| N[C@]1(C(=O)O)CC1CCP(=O)(O)O (stereo partly specified) | Glutamate NMDA receptor | 4.82 |
